Where do these numbers come from? They come from patent US20220169654A1.

- assayTarget: MAT2A homodimer (Homo sapiens, UniProt P31153)
- Construct: inferred from Ni sepharose purification with imidazole elution
- Sequence (P31153 whole entry): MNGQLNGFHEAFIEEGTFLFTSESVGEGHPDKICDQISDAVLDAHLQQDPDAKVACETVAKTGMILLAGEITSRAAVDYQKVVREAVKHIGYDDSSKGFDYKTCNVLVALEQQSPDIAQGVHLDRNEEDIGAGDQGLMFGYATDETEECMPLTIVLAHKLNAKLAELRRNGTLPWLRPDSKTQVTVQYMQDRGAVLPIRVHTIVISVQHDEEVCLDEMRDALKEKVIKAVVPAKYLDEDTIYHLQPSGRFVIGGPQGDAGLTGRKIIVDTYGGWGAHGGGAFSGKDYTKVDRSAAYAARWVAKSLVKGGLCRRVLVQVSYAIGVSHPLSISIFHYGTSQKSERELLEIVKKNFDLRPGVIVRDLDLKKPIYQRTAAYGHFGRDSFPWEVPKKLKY
- methodNotes: MAT2A inhibition (biochemical, liberated phosphate, PiColorLock Gold)
- particulars: recombinant MAT2A homodimer; IC50 bin with Max Inh.; read-out: Enzyme Inhibition Bin
Reported values of IC50 for individual entries

Solved entries:
{"molecule": "Cc1c(C#N)c2nn(-c3ccc4nn(C)cc4c3)c(=O)c(-c3ccc(OC(F)F)cc3)c2n1CC1CC1 [Example 264]", "IC50": "< 100 nM"}
{"molecule": "Cn1cc2cc(-n3nc4ccn(CC5CC5)c4c(-c4ccc(OC(F)F)nc4)c3=O)ccc2n1 [Example 113]", "IC50": "< 100 nM"}
{"molecule": "Cn1cc2cc(-n3nc4ncn(CC5CC5)c4c(-c4ccc(OC(F)F)nc4)c3=O)ccc2n1 [Example 189]", "IC50": "< 100 nM"}
{"molecule": "Cc1ccc(-c2c(=O)n(-c3ccc4nn(C)cc4c3)nc3c(C#N)cn(CCC(F)(F)F)c23)cn1 [Example 108]", "IC50": "100 to 1000 nM"}
{"molecule": "Cn1cc(-n2nc3ccn(CC4CC4)c3c(-c3ccc(OC(F)F)cc3)c2=O)ccc1=O [Example 223]", "IC50": "< 100 nM"}

What value of measured IC50 is listed for Cn1cc2cc(-n3nc4c(C#N)c(Cl)n(CC5CC5)c4c(-c4ccc(C5CC5)nc4)c3=O)ccc2n1 [Example 251] ?
< 100 nM

Param item: CC(C)Cn1ccc2nn(-c3ccc4nn(C)cc4c3)c(=O)c(-c3ccc(OC(F)F)cc3)c21 [Example 115]
< 100 nM

And what about the molecule CN1CC=C(n2nc3ccn(CC4CC4)c3c(-c3ccc(C4CC4)nc3)c2=O)CC1 [Example 232] ?
> 10000 nM
